Entries and their TD50 at 6 h values follow.
- Protocol Details: Effect of inducing gastric ulcer
- Assay type: in vivo, male Fisher rat
- Condition Parameters: rat, in vivo; oral, fasted 24 hours, after six hours; read-out: UD50 (50% ulcer inducing dose)
Value Kind: TD50 at 6 h

Compound | Observed Value
CN1C(C(=O)Nc2ccccn2)=C(O)c2ccccc2S1(=O)=O [Piroxicam, reference compound] | 23.1 mg/kg
COc1ccc2c(c1)c(CC(=O)O)c(C)n2C(=O)c1ccc(Cl)cc1 [Indomethacin, indomethacin, reference compound] | 7.8 mg/kg
CON1CCC(=Cc2cc(C(C)(C)C)c(O)c(C(C)(C)C)c2)C1=O [Compound B] | 473 mg/kg

----------
- Protocol Details: Acute Toxicity Test, rats
- Condition Parameters: rat, in vivo, sc, hypodermic, male rats; calculated according to Behrens-Karber method (*)
Value Kind: LD50 (mg/kg)

Compound | Observed Value
CON1CCC(=Cc2cc(C(C)(C)C)c(O)c(C(C)(C)C)c2)C1=O [Compound B] | 806

----------
- Protocol Details: Acute Toxicity Test, mice
- Assay type: in vivo
- Condition Parameters: mouse, in vivo, ip, abdominal, female mice; confidence range 443.9~1549.3

Compound Structure | LD50 (mg/kg)
CON1CCC(=Cc2cc(C(C)(C)C)c(O)c(C(C)(C)C)c2)C1=O | 805

----------
- Protocol Details: Acute Toxicity Test, rats
- Condition Parameters: rat, in vivo, po, male rats, after fasting 17 to 24 hours
Value Kind: LD50 (mg/kg)

Compound Structure | Value Kind | U | Observed Value
CON1CCC(=Cc2cc(C(C)(C)C)c(O)c(C(C)(C)C)c2)C1=O | LD50 | mg/kg | 354

----------
- Protocol Details: Acute Toxicity Test, mice
- Assay type: in vivo
- Condition Parameters: mouse, in vivo, po, female mice, after fasting 17 to 24 hours

Compound Structure | LD50, mg/kg
CON1CCC(=Cc2cc(C(C)(C)C)c(O)c(C(C)(C)C)c2)C1=O | 6870

----------
- Protocol Details: Acute Toxicity Test, mice
- Assay type: in vivo
- Condition Parameters: mouse, in vivo, sc, hypodermic, female mice

Compound Structure | LD50
CON1CCC(=Cc2cc(C(C)(C)C)c(O)c(C(C)(C)C)c2)C1=O | > 4000 mg/kg

----------
- Protocol Details: Acute Toxicity Test, rats
- Condition Parameters: rat, in vivo, sc, hypodermic, female rats; confidence range 124~476
- Experimental: LD 50 of the compound B, falling within the scope of the invention, was investigated in respect to acute toxicity, using rats and mice. *Values were calculated according to BehrensKarber method. The oral administration was conducted after a fasting treatment for 17 to 24 hours
Value Kind: LD50

Compound | Observed Value
CON1CCC(=Cc2cc(C(C)(C)C)c(O)c(C(C)(C)C)c2)C1=O [Compound B] | 291 mg/kg

----------
- Protocol Details: Acute Toxicity Test, rats
- Condition Parameters: rat, in vivo, ip, abdominal, male rats; calculated according to Behrens-Karber method (*)

Compound | LD50 [mg/kg]
CON1CCC(=Cc2cc(C(C)(C)C)c(O)c(C(C)(C)C)c2)C1=O [Compound B] | 96.7

----------
- Protocol Details: Acute Toxicity Test, rats
- Condition Parameters: rat, in vivo, po, female rats, after fasting 17 to 24 hours; calculated according to Behrens-Karber method (*)

Compound Structure | LD50, mg/kg
CON1CCC(=Cc2cc(C(C)(C)C)c(O)c(C(C)(C)C)c2)C1=O | 161
